- Measurement target: UniProt P28327
- Sequence (P28327 whole entry): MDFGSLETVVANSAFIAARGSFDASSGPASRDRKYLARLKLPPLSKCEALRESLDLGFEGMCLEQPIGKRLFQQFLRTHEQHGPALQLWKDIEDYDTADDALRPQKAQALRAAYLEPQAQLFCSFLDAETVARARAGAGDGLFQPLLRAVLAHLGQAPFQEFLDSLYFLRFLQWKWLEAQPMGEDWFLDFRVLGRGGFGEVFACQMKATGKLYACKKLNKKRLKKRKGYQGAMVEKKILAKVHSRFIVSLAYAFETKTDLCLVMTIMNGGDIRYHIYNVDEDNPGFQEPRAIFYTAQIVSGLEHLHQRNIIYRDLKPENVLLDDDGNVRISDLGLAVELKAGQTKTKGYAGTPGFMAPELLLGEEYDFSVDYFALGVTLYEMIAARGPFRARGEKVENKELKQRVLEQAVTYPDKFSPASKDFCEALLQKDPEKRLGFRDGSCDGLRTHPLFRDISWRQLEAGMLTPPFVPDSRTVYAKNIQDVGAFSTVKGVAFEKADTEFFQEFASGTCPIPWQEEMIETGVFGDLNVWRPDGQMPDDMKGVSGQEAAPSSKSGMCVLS
- Test details: Inhibition of bovine GRK1 (1 to 535 residues) assessed as decrease in phosphorylation of tubulin after 5 mins by SDS-PAGE analysis
pIC50: −log10 of the molar value.
Consider the following compounds and their measured pIC50 readings.

{"Compound": "CC1=C(C(=O)Nc2cc(Cl)c3[nH]ncc3c2)C(c2ccc(C(F)(F)F)cc2)CC(=O)N1 (configuration not stated) [GSK-466317A]", "Relation operator": "=", "pIC50": 3.00}
{"Compound": "CC1=C(C(=O)Nc2ccc3[nH]ncc3c2)C(c2ccc(F)cc2)N=C(c2ccc(C(F)(F)F)cc2)N1 (configuration not stated)", "Relation operator": "<", "pIC50": 3.00}

====

- Measurement target: Protein kinase C alpha type (Homo sapiens, UniProt P17252)
- Test details: Inhibition of recombinant full-length human N-terminal GST tagged PKCalpha expressed in Baculovirus infected Sf9 insect cells using KRREILSRRPSYR as substrate incubated for 30 mins by ADP-Glo assay
Counter-ions that a name gives are not always drawn.
Quantity: IC50 (µM)

{"Molecule": "Fc1ccc([C@@H]2CCNC[C@H]2COc2ccc3c(c2)OCO3)cc1 [PAROXETINE HYDROCHLORIDE]", "Reported measurement": 220}

====

- Measurement target: UniProt:Q13976
- Sequence (Q13976 whole entry): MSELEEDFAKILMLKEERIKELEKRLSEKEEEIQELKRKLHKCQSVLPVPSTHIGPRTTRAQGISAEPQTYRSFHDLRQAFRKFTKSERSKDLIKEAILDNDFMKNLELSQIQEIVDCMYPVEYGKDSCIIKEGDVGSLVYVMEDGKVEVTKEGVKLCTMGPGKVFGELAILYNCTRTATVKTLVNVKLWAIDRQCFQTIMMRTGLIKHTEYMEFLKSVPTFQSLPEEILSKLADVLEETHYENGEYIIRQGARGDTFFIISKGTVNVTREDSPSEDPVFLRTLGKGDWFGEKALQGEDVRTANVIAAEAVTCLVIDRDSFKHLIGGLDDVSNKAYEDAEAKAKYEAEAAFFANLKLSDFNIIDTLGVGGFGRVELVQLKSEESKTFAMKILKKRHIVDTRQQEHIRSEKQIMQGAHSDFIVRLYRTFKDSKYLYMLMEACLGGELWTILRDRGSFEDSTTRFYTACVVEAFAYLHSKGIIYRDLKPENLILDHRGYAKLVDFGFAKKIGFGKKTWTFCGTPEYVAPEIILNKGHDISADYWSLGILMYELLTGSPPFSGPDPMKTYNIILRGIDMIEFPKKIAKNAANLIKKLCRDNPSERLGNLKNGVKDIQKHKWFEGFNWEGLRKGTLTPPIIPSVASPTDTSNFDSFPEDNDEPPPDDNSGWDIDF
- Test details: Binding affinity to human recombinant N-terminal GST-tagged PKGalpha expressed in Baculovirus infected insect Sf9 cells using RKRSRAE as substrate in presence of [gamma-32P]ATP
pKd: −log10 of the molar value.
Quantity: pKd

{"Record smiles": "O=C(N[C@@H]1CNCCC[C@H]1OC(=O)c1cc(O)c(C(=O)c2c(O)cccc2C(=O)O)c(O)c1)c1ccc(O)cc1", "Quantity": "pKd", "Reported measurement": 8.80}

The values you see were collected from ChEMBL document CHEMBL3853314.
